# maps each entry to its k2
- tested-on: T1, caspase-3 (UniProt P42574)
- T1 sequence (looked up): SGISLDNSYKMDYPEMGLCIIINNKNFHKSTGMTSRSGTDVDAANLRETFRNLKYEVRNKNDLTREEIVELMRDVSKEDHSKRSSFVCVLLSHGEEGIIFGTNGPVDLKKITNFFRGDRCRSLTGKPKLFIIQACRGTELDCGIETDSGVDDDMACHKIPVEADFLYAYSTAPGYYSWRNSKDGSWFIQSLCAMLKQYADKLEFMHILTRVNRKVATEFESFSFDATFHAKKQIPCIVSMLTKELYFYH
- method: cell-based or functional assay
Numbered stars: 1 amine (or outer) side, 2 acyl side, 3 side chain; on linkers, the order of the positions; unused ones are H or OH. Square brackets hold non-standard residues; d marks the D form. * marks the point of attachment. AAsp = aza-Asp, O=C(N(CC(=O)[*:3])N[*:1])[*:2]; Cbz = O=C(OCc1ccccc1)*
readout-name: k2 (M⁻¹ s⁻¹)

{"binder": "Cbz-LET[AAsp]-{(2S,3S)‑EP‑COOEt} [Cbz-Leu-Glu-Thr-AAsp-(2S, 3S)-EP-COOEt]", "quantitative-result": 3210}
{"binder": "Cbz-LET[AAsp]-{(2S,3S)‑EP‑CON(CH2Ph)2} [Cbz-Leu-Glu-Thr-AAsp-(2S,3S)-EP-CON(CH2Ph)2]", "quantitative-result": 2750}
{"binder": "Cbz-LET[AAsp]-{(2S,3S)‑EP‑CON(CH3)CH2Ph} [Cbz-Leu-Glu-Thr-AAsp-(2S,3S)-EP-CON(CH3)CH2Ph]", "quantitative-result": 2640}
